- ASSAYED_TARGET: Focal Adhesion Kinase (FAK) (Homo sapiens)
- PROTOCOL_SUMMARY: FAK assay system (Focal Adhesion Kinase inhibition)
- Format: biochemical
- CONDITIONS_USED: read-out: FAK IC50
REPORTED_METRIC: log10 of IC50 (log10 of the value in nM)

{"columns": ["MOLECULE", "ASSAYED_TARGET", "log10 of IC50"],
 "data": [
  ["CCNC(=O)c1ccccc1Nc1nc(Nc2ccc(N3CCN(C)CC3)cc2OC)ncc1Cl", "Focal Adhesion Kinase (FAK) (Homo sapiens)", 1.18],
  ["CNS(=O)(=O)c1ccccc1Nc1nc(Nc2ccc(-n3ccnc3)cc2OC)ncc1Br", "Focal Adhesion Kinase (FAK) (Homo sapiens)", 0.85],
  ["CCCS(=O)(=O)c1cc(N2CCN(C)CC2)ccc1Nc1nc(Nc2ccc(F)cc2OC)ncc1Cl", "Focal Adhesion Kinase (FAK) (Homo sapiens)", 0.94],
  ["CNS(=O)(=O)c1ccccc1Nc1nc(Nc2ccc(OC3CCN(C)CC3)cc2OC)ncc1Cl", "Focal Adhesion Kinase (FAK) (Homo sapiens)", 1.08],
  ["COc1cc(N2CCC(N3CCCCC3)CC2)ccc1Nc1ncc(Cl)c(Nc2ccccc2S(=O)(=O)NC(C)C)n1", "Focal Adhesion Kinase (FAK) (Homo sapiens)", 0.18],
  ["CNC(=O)c1cc(F)ccc1Nc1nc(Nc2ccc(N3CCN(C(C)=O)CC3)cc2OC)ncc1Cl", "Focal Adhesion Kinase (FAK) (Homo sapiens)", 0.63],
  ["COc1cc(N2CCOCC2)ccc1Nc1ncc(Cl)c(Nc2ccccc2S(=O)(=O)NC(C)C)n1", "Focal Adhesion Kinase (FAK) (Homo sapiens)", 0.51],
  ["CCCS(=O)(=O)c1ccccc1Nc1nc(Nc2cc(N3CCN(C(C)=O)CC3)ccc2OC)ncc1Cl", "Focal Adhesion Kinase (FAK) (Homo sapiens)", 0.84],
  ["CNC(=O)c1ccccc1Nc1nc(Nc2ccc(OC3CCN(C)CC3)cc2OC)ncc1Cl", "Focal Adhesion Kinase (FAK) (Homo sapiens)", 0.79],
  ["CNC1CCN(c2ccc(Nc3ncc(Cl)c(Nc4ccccc4S(=O)(=O)C(C)C)n3)c(OC)c2)CC1", "Focal Adhesion Kinase (FAK) (Homo sapiens)", 0.64],
  ["CNC(=O)c1ccccc1Nc1nc(Nc2ccc(N3CCN4CCOC[C@@H]4C3)cc2OC)ncc1Cl", "Focal Adhesion Kinase (FAK) (Homo sapiens)", 0.81],
  ["CNC1CCN(c2ccc(OC)c(Nc3ncc(Cl)c(Nc4ccccc4S(=O)(=O)NC)n3)c2)C1 (stereo not shown)", "Focal Adhesion Kinase (FAK) (Homo sapiens)", 0.40],
  ["CCNC(=O)c1ccccc1Nc1nc(Nc2cc(N3CCC(N4CCCCC4)CC3)ccc2OC)ncc1Cl", "Focal Adhesion Kinase (FAK) (Homo sapiens)", 1.23],
  ["COc1cc(F)ccc1Nc1ncc(Cl)c(Nc2ccccc2S(=O)(=O)NCC(C)C)n1", "Focal Adhesion Kinase (FAK) (Homo sapiens)", 1.41],
  ["CNC(=O)c1ccccc1Nc1nc(Nc2cccc3c2ccn3C)ncc1Cl", "Focal Adhesion Kinase (FAK) (Homo sapiens)", 1.53],
  ["CNC(=O)c1cc(F)ccc1Nc1nc(Nc2cccc3c2ccn3C)ncc1Cl", "Focal Adhesion Kinase (FAK) (Homo sapiens)", 1.41]
]}

###

- ASSAYED_TARGET: Focal Adhesion Kinase (FAK) (Homo sapiens, UniProt Q05397)
- Sequence (Q05397 384-706): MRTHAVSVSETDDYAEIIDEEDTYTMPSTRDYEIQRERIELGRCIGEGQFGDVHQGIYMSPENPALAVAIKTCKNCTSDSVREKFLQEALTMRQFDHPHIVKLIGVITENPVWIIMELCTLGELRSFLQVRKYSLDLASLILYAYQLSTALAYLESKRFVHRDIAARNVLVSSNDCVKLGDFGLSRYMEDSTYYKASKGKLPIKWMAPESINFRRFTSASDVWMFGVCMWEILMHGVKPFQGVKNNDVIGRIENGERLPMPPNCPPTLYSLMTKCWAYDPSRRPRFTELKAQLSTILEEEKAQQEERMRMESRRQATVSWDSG
- PROTOCOL_SUMMARY: FAK assay system (Focal Adhesion Kinase inhibition)
- Assay type: biochemical
- CONDITIONS_USED: read-out: FAK IC50

{"columns": ["COMPOUND", "IC50 [µM]"],
 "data": [
  ["CCOCCOC1CCN(c2ccc(Nc3ncc(Cl)c(Nc4ccccc4C(=O)NC)n3)c(OC)c2)CC1", 0.0082],
  ["CNC(=O)c1ccccc1Nc1nc(Nc2ccc(N3CCOCC3)c3c2ccn3C)ncc1Cl", 0.057],
  ["CNS(=O)(=O)c1ccccc1Nc1nc(Nc2cc(OC)ccc2OCCOC)ncc1Br", 0.095],
  ["COc1cc(N2CCC(NC(C)=O)C2)ccc1Nc1ncc(Cl)c(Nc2ccccc2S(=O)(=O)NC(C)C)n1 (centres unmarked)", 0.0025],
  ["CNS(=O)(=O)c1ccccc1Nc1nc(Nc2ccc(OC)cc2OC)ncc1Br", 0.013]
]}
